Assign Hemolysis HD50 to each entry below.
Tested on: murine red blood cells
Test: Red blood cell hemolysis
Assay type: cell-based, mouse
Conditions: red cells of murine
Description: Selectivity of cyclic peptides for bacterial over mammalian cells was evaluated by measuring red blood cell hemolytic activities as described in Tosteson, M. T. Holmes, S. J., Razin, M. and Tosteson, D. C. Melittin Lysis of Red Cells, J. Membrane Biol. 87, 35-44(1985). Heparinized murine blood was centrifuged at 1000×g for 10 minutes. The supernatant and the buffy coat were removed. […] Aliquots of the supernatant were diluted 2 times with saline solution and the absorbance was measured at 560 nm.
Non-standard residues stand in square brackets, D forms with d. Residues, ends and D or L forms follow the SMILES beside them.
Reply with just the number (in µg/mL).

Ask: For the compound shown here, CC(C)C[C@H]1NC(=O)[C@H](Cc2c[nH]c3ccccc23)NC(=O)[C@@H](CCCCN)NC(=O)[C@H](CCCNC(=N)N)NC(=O)[C@@H](CCCNC(=N)N)NC(=O)[C@H](Cc2c[nH]c3ccccc23)NC(=O)[C@@H](CC(C)C)NC(=O)[C@H](CCCCN)NC1=O [SEQ ID NO:111, [RRKWLKLW]] (cyclo([dR]R[dK]W[dL]K[dL]W)) , give the reported Hemolysis HD50.
Reply: 100

Ask: For the compound shown here, CC(C)C[C@@H](NC(=O)[C@H](Cc1c[nH]c2ccccc12)NC(=O)[C@@H](CC(C)C)NC(=O)[C@H](Cc1c[nH]c2ccccc12)NC(=O)[C@@H](CCCCN)NC(=O)[C@H](CCCCN)NC(=O)[C@H](N)CCCCN)C(=O)N[C@@H](Cc1c[nH]c2ccccc12)C(N)=O [SEQ ID NO:134, H-KKKWLWLW-NH2] (H-[dK]K[dK]W[dL]W[dL]W-NH2) , give the reported Hemolysis HD50.
Reply: 100
